# Measured Target: Cytochrome P450 1A2 (Homo sapiens) (UniProt P05177)
# Sequence (P05177 whole entry, looked up): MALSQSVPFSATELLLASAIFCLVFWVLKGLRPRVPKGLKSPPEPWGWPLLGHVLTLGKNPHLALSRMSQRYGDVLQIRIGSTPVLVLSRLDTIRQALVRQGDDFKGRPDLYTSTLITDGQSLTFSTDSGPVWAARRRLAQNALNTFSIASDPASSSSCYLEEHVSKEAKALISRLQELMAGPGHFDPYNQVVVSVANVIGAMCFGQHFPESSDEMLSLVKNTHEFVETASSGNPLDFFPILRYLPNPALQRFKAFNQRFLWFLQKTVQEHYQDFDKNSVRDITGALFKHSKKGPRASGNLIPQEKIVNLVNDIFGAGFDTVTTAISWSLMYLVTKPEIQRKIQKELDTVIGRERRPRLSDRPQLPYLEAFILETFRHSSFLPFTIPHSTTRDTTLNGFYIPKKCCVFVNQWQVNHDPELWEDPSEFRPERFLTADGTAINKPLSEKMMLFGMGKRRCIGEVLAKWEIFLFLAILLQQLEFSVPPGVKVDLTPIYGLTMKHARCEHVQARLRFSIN
# Test Name: p450-cyp1a2 (AID 410); further: potency means the concentration at half of the fitted maximal effect
# Assay Context: recombinant CYP1A2, luciferin-ME demethylation, luminescence; series mostly up to 57 µM
# Experimental: The P450 gene superfamily is involved in metabolism and the clearance of xenobiotics. This assay used human CYP1A2 to measure the demethylation of luciferin 6' methyl ether (Luciferin-ME; Promega-Glo) to luciferin. The luciferin is then measured by luminescence after the addition of a luciferase detection regeant. Luciferin-ME concentration in the assay was equal to its Km for CYP1A2. NCGC Assay Protocol Summary: […]
Inconclusive results are not listed. Activity calls are given as the source filed them. The call rests on the fitted dose curve.
Readout Type: Potency

// known answers, use as guide
{"Smiles Str": "O=C(c1ccncc1)N1CCC2(CC1)CN(c1cccc(-c3ccccc3)c1)C2", "Readout Type": "Potency", "Observed Measurement": "15.8 µM (active)"}
{"Smiles Str": "O=C(O)C1CCN(c2ncnc3ccc(-c4ccccc4C(F)(F)F)cc23)CC1", "Readout Type": "Potency", "Observed Measurement": "inactive"}
{"Smiles Str": "COc1ncc2nc(-c3ccccc3)c(=O)n(C)c2n1", "Readout Type": "Potency", "Observed Measurement": "1.58 µM (active)"}
{"Smiles Str": "Cc1cnc(CNc2ncncc2-c2cccc(C#N)c2)cn1", "Readout Type": "Potency", "Observed Measurement": "12.6 µM (active)"}
{"Smiles Str": "O=C(Oc1ccccc1)N1CCC2(CC1)CN(c1ccccc1)C2", "Readout Type": "Potency", "Observed Measurement": "15.8 µM (active)"}

Record Potency for all entries; do not skip any.
1. CN(C)C(=O)c1ccc(-c2cncnc2NCCc2cnc[nH]2)cc1
2. COc1ccc(-n2c(=O)c(-c3cn(C)c4ccccc34)nc3cnc(N4CCOCC4)nc32)cc1
3. CN(CCOc1ccc(C[C@H](Nc2ccccc2C(=O)c2ccccc2)C(=O)O)cc1)c1ccccn1
4. CCNc1ncc2nc(-c3cn(C)c4ccccc34)c(=O)n(Cc3cccc(OC)c3)c2n1
5. O=c1c(-c2ccccc2)nc2cnc(N3CCNCC3)nc2n1-c1ccccc1

Result:
1. 12.6 µM (active)
2. 31.6 µM (active)
3. inactive
4. 12.6 µM (active)
5. 7.94 µM (active)

====

# System: CP269
# Test Name: qHTS profiling for inhibitors of Plasmodium falciparum proliferation (AID 504749); further: nearly all actives have a fitted effect of over 60% in size
# Assay Context: P. falciparum in erythrocytes, SYBR Green DNA, 72 h; series mostly up to 28.7 µM
Records with an inconclusive call do not appear. The source made the active and inactive calls. Calls follow the shape of the dose curve; as a rule, active = well fitted inhibition curve with a large enough effect; inconclusive = small, poorly fitted or top-dose-only effect; inactive = flat fitted curve, though single readings scatter.
Use one of these outcomes when replying: active, inactive

{"Molecule": "C=C1/C(=C\\C=C2/CCC[C@]3(C)[C@@H]([C@H](C)CCCC(C)(C)O)CC[C@@H]23)C[C@@H](O)C[C@@H]1O", "Measured Target": "CP269", "Label Value": "inactive"}
{"Molecule": "CN1C(=O)CCC1c1cccnc1 (configuration not stated)", "Measured Target": "CP269", "Label Value": "inactive"}
{"Molecule": "C[C@@H]1[C@H](O)[C@@H](C)/C=C/C=C/C=C/C=C/C=C/C=C/C=C/[C@H](O[C@@H]2O[C@H](C)[C@@H](O)[C@H](N)[C@@H]2O)C[C@@H]2O[C@](O)(C[C@@H](O)C[C@@H](O)[C@H](O)CC[C@@H](O)C[C@@H](O)CC(=O)O[C@H]1C)C[C@H](O)[C@H]2C(=O)O", "Measured Target": "CP269", "Label Value": "inactive"}
{"Molecule": "C[C@@]12C(=O)OC(=O)[C@]1(C)[C@H]1CC[C@@H]2O1", "Measured Target": "CP269", "Label Value": "active"}

Task: Could you kindly confirm the outcome this assay logged for CC(C)C[C@H]1C(=O)N2CCCC2[C@]2(O)O[C@](NC(=O)[C@@H]3C=C4c5cccc6[nH]c(Br)c(c56)C[C@H]4N(C)C3)(C(C)C)C(=O)N12 (some centres not stated) ?
Result: active

Task: For CN=C(N)NCCCC(N)C(=O)O (configuration not stated) , which call appears in the assay record?
Result: inactive

Task: Answer briefly: the call reported for Oc1ccc(/C=C\c2cc(O)cc(O)c2)cc1 in this assay.
Result: inactive

// data source = PubChem BioAssay (NCATS)
